# procedure-details: CARIV-A-001 Part A: single ascending IV doses over 20 minutes in healthy subjects
# Type: in vivo, human
# condition-info: both sexes, human, plasma and urine, iv, 7.5 mg/kg, IV over 20 minutes, 7.5 mg/kg; read-out: Renal Clearance (RCl), Mean
parameter: CL renal (mL/min/kg)
State just the number; it will be interpreted in mL/min/kg.

Q. Any idea what its CL renal is? The molecule is NC(=O)N[C@@H](CCC(=O)O)C(=O)O
A. 4.33

###

# procedure-details: CARIV-A-001 Part B: cross-over IV infusion over 2 hours vs oral tablet 100 mg/kg in healthy subjects
# Assay type: in vivo, human
# condition-info: both sexes, human, plasma, oral, 100 mg/kg; 12 subjects; read-out: Absolute bioavailability, 90% confidence intervals
# Procedure: The levels of CGA in plasma and urine were analysed using a fully validated method, which included LC-MS/MS analysis. The PK data were analysed based on a non-compartmental model. […] The PK parameters were determined using SAS (version 9.3), and modelling of the PK data was performed using NONMEM (version 7.3, ICON Solutions). […] The PK analysis of Carbaglu was conducted on all subjects showing quantifiable plasma levels using standard non-compartmental approach.
parameter: bioavailability

Q. Any idea what its bioavailability is? The compound is NC(=O)N[C@@H](CCC(=O)O)C(=O)O [carglumic acid, N-carbamoyl-L-glutamic acid]
A. 8.3 to 11%
